Every entry's value here was drawn from patent US9855230B2.

We begin with a simple list: items and their reported pEC50.
System: recombinant NL4-3 virus (nef section replaced with Renilla luciferase gene) in MT-2 cells
Test: whole plant or invertebrate
Assay type: cell-based, HIV
Conditions: NL43, luciferase activity in MT-2 cells infected 4-5 days with recombinant NL4-3 virus, read-out: Activity
pEC50: −log10 of the molar value. Counter-ions that a name gives are not always drawn.

Some entries whose results are on file:
Cc1ccccc1S(=O)(=O)NC(=O)N[C@@H](Cc1cc(F)cc(F)c1)c1ncccc1-c1cccc(C(=O)OC(C)(C)C)c1 [Example 130, TFA]; < 6.00
Cc1ccccc1S(=O)(=O)NC(=O)N[C@@H](Cc1cc(F)cc(F)c1)c1ncccc1-c1cccc(CO)c1 [Example 121, TFA]; 6.00 to 7.00
Cc1ccccc1S(=O)(=O)NC(=O)N[C@@H](Cc1ccccc1)c1nccn1-c1ccccc1; 6.00 to 7.00

If you can, please state the reported pEC50 value of COC(=O)Nc1ccc(-n2ccnc2[C@H](Cc2ccccc2)NC(=O)NS(=O)(=O)c2ccc(C)cc2)cc1 .
6.00 to 7.00

If you can, please state the reported pEC50 value of Cc1ccccc1S(=O)(=O)NC(=O)N[C@@H](Cc1ccccc1)c1nccn1-c1ccc(Cl)cc1 .
6.00 to 7.00

If you can, please state the reported pEC50 value of Cc1ccccc1S(=O)(=O)NC(=O)N[C@@H](Cc1cc(F)cc(F)c1)c1ncccc1-c1ccc(F)c(C(N)=O)c1 [Example 97, TFA] .
6.00 to 7.00

----------
Test system: recombinant NL4-3 virus (nef section replaced with Renilla luciferase gene) in MT-2 cells
Assay: whole plant or invertebrate
Type: cell-based, HIV
Conditions: NL43, luciferase activity in MT-2 cells infected 4-5 days with recombinant NL4-3 virus, read-out: Activity
pEC50: −log10 of the molar value.
endpoint-label: pEC50

If you can, please state the reported pEC50 value of Cc1ccccc1S(=O)(=O)NC(=O)N[C@@H](Cc1ccccc1)c1nccn1-c1cccc(Cl)c1 [Example 12] .
> 7.00

----------
Test system: recombinant NL4-3 virus (nef section replaced with Renilla luciferase gene) in MT-2 cells
Experiment: whole plant or invertebrate
Type: cell-based, HIV
Details: NL43, luciferase activity in MT-2 cells infected 4-5 days with recombinant NL4-3 virus, read-out: Activity
Where a name gives a salt, the structure may show the parent alone.
We begin with a simple list: items and their reported EC50.

Some entries whose results are on file:
O=C(N[C@H](Cc1cc(F)cc(F)c1)c1ncccc1-c1c[nH]c2ccccc12)NS(=O)(=O)c1ccccc1Cl [Example 102, TFA]; > 1 µM
COc1ccc(-n2ccnc2C(Cc2cc(F)cc(F)c2)NC(=O)NS(=O)(=O)c2ccccc2F)cc1 (racemic); 0.1 to 1 µM
CCCOc1ccc(-n2ccnc2[C@H](Cc2ccccc2)NC(=O)NS(=O)(=O)c2ccccc2C)cc1Cl; < 0.1 µM

If you can, please state the reported EC50 value of Cc1nc2cc(-n3ccnc3[C@H](Cc3ccccc3)NC(=O)NS(=O)(=O)c3ccccc3F)ccc2s1 .
0.1 to 1 µM

If you can, please state the reported EC50 value of Cc1ccccc1S(=O)(=O)NC(=O)N[C@@H](Cc1cc(F)cc(F)c1)c1ncccc1-c1cncc(F)c1 [Example 100, TFA] .
> 1 µM

----------
Tested on: recombinant NL4-3 virus (nef section replaced with Renilla luciferase gene) in MT-2 cells
Assay: whole plant or invertebrate
Format: cell-based, HIV
Conditions: NL43, luciferase activity in MT-2 cells infected 4-5 days with recombinant NL4-3 virus, read-out: Activity
pEC50: −log10 of the molar value. Where a name gives a salt, the structure may show the parent alone.
endpoint-label: pEC50

If you can, please state the reported pEC50 value of Cc1ccccc1S(=O)(=O)NC(=O)N[C@@H](Cc1ccccc1)c1nccn1-c1cccc(-n2cccc2)c1 .
< 6.00

If you can, please state the reported pEC50 value of COC(=O)Nc1ccc(-n2ccnc2[C@H](Cc2ccccc2)NC(=O)NS(=O)(=O)c2ccccc2)cc1 .
6.00 to 7.00

If you can, please state the reported pEC50 value of Cc1ccccc1S(=O)(=O)NC(=O)N[C@@H](Cc1ccccc1)c1nccn1-c1cnn(-c2ccccc2)c1 .
> 7.00

If you can, please state the reported pEC50 value of NC(=O)c1cc(-c2cccnc2[C@@H](Cc2cc(F)cc(F)c2)NC(=O)NS(=O)(=O)c2ccccc2Cl)ccc1F [Example 109, TFA] .
< 6.00
